Data origin, for the record: patent US7960349B2

assay remarks: Dog pharmacokinetic study
Type: in vivo
details: sc 67 μg/kg; vehicle propylene glycol/pH 7.4 phosphate buffer (1:1)
*1 amine or outer side, *2 acyl side, *3 side chain or, on linkers, in order; H or OH if unused. Where a SMILES comes first, the peptide text is derived from it. [ ]: non-standard residue; d: D form. ξ: configuration not given here. Ala(6-(2-MePh)pyridin-3-yl) = Cc1ccccc1-c1ccc(C[C@H](N)C(=O)O)cn1; Bip(2'-Et-4'-OMe) = CCc1cc(OC)ccc1-c1ccc(C[C@H](N)C(=O)O)cc1; X2 = Cc1ccccc1-c1ncc(C[C@H](N[*:1])C(=O)[*:2])cn1; Bip(2'-Me) = Cc1ccccc1-c1ccc(C[C@H](N)C(=O)O)cc1; αMePhe(2-F) = C[C@](N)(Cc1ccccc1F)C(=O)O; ξαMePhe(2-F) = CC(N)(Cc1ccccc1F)C(=O)O; Thr(3ξ) = CC(O)[C@H](N)C(=O)O; dNMeA = CN[C@H](C)C(=O)O; ξαMeP = CC1(C(=O)O)CCCN1; Aib = CC(C)(N)C(=O)O
Everything with Exposure in dogs (sc@67 μg/kg) lower than 1 µM·h is Not satisfied; everything else, including exactly 1 µM·h, is Satisfied.

Here are 3 compounds together with their reported answers.
CCc1cc(OC)ccc1-c1ccc(C[C@H](NC(=O)[C@H](CC(=O)O)NC(=O)[C@H](CO)NC(=O)[C@@H](NC(=O)[C@](C)(Cc2ccccc2F)NC(=O)[C@@H](NC(=O)CNC(=O)[C@H](CCC(=O)O)NC(=O)C(C)(C)NC(=O)[C@@H](N)Cc2c[nH]cn2)[C@@H](C)O)[C@@H](C)O)C(=O)N[C@@H](Cc2cnc(-c3ccccc3C)nc2)C(N)=O)cc1 [SEQ ID NO: 130] (H-H[Aib]EGT[αMePhe(2-F)]TSD[Bip(2'-Et-4'-OMe)][X2]-NH2): Not satisfied
CCc1cc(OC)ccc1-c1ccc(C[C@H](NC(=O)[C@H](CC(=O)O)NC(=O)[C@H](CO)NC(=O)[C@@H](NC(=O)C(C)(Cc2ccccc2F)NC(=O)[C@@H](NC(=O)CNC(=O)[C@H](CCC(=O)O)NC(=O)C2(C)CCCN2C(=O)[C@@H](N)Cc2c[nH]cn2)[C@@H](C)O)[C@@H](C)O)C(=O)N[C@@H](Cc2ccc(-c3ccccc3C)nc2)C(N)=O)cc1 (some centres unmarked) [SEQ ID NO: 118] (H-H[ξαMeP]EGT[ξαMePhe(2-F)]TSD[Bip(2'-Et-4'-OMe)][Ala(6-(2-MePh)pyridin-3-yl)]-NH2): Satisfied
CCc1cc(OC)ccc1-c1ccc(C[C@H](NC(=O)[C@H](CC(=O)O)NC(=O)[C@H](CO)NC(=O)[C@@H](NC(=O)[C@](C)(Cc2ccccc2F)NC(=O)[C@@H](NC(=O)CNC(=O)[C@H](CCC(=O)O)NC(=O)[C@@H](C)N(C)C(=O)[C@@H](N)Cc2c[nH]cn2)[C@@H](C)O)[C@@H](C)O)C(=O)N[C@@H](Cc2ccc(-c3ccccc3C)nc2)C(N)=O)cc1 [SEQ ID NO: 119] (H-H[dNMeA]EGT[αMePhe(2-F)]TSD[Bip(2'-Et-4'-OMe)][Ala(6-(2-MePh)pyridin-3-yl)]-NH2): Satisfied

Would you kindly look at the next entry?
// inclusive: Exposure in dogs (sc@67 μg/kg) at least 1 µM·h? input: CCc1cc(OC)ccc1-c1ccc(C[C@H](NC(=O)[C@H](CC(=O)O)NC(=O)[C@H](CO)NC(=O)[C@@H](NC(=O)C(C)(Cc2ccccc2F)NC(=O)[C@@H](NC(=O)CNC(=O)[C@H](CCC(=O)O)NC(=O)C(C)(C)NC(=O)[C@@H](N)Cc2c[nH]cn2)C(C)O)C(C)O)C(=O)N[C@@H](Cc2ccc(-c3ccccc3C)cc2)C(N)=O)cc1 (some centres unmarked) [Compound I, reference compound] (H-H[Aib]EG[Thr(3ξ)][ξαMePhe(2-F)][Thr(3ξ)]SD[Bip(2'-Et-4'-OMe)][Bip(2'-Me)]-NH2)
Not satisfied
